Consider the following compounds; for each one, report its Emax.
testedOn: ligand binding domain of human FXR (Homo sapiens (Human))
assayRemarks: FXR ligand binding assay (LanthaScreen TR-FRET, SRC2-2 peptide recruitment)
assayContext: extent of activation relative to GW4064; read-out: % Efficacy
The reply should contain only the number, in %.

**Q:** Find the measured Emax: item O=C(NS(=O)(=O)CCC(O)CO)c1ccc(N2C[C@@H]3C[C@H]2C[C@H]3OCc2c(-c3c(Cl)cccc3Cl)noc2C2CC2)cc1 (stereo partly drawn) [Compound I-219] , target or system ligand binding domain of human FXR (Homo sapiens (Human)).
**A:** 144

**Q:** Find the measured Emax: item Cc1cccc(Cl)c1-c1noc(C2CC2)c1CO[C@@H]1C[C@@H]2C[C@H]1CN2c1ccc(CCC(=O)NS(=O)(=O)C2CC2)cc1F [Compound I-242] , target or system ligand binding domain of human FXR (Homo sapiens (Human)).
**A:** 182

**Q:** Find the measured Emax: item O=C(O)[C@H]1CCc2cc(N3C[C@@H]4C[C@H]3C[C@H]4OCc3c(-c4c(Cl)cccc4Cl)noc3C3CC3)ccc2C1 (single isomer, unassigned) [Compound I-138] , target or system ligand binding domain of human FXR (Homo sapiens (Human)).
**A:** 132

**Q:** Find the measured Emax: item O=C(O)CCc1ccc(N2C(=O)[C@@H]3C[C@H]2C[C@H]3OCc2c(-c3c(Cl)cccc3Cl)noc2C2CC2)cc1F [Compound I-305] , target or system ligand binding domain of human FXR (Homo sapiens (Human)).
**A:** 121

**Q:** Find the measured Emax: item O=C(O)c1ccc(N2C[C@@H]3C[C@H]2C[C@H]3OCc2c(-c3c(Cl)cccc3Cl)noc2C2(F)CC2)cc1F [Compound I-122] , target or system ligand binding domain of human FXR (Homo sapiens (Human)).
**A:** 137

**Q:** Find the measured Emax: item O=C(NS(=O)(=O)CCC1CCOC1)c1ccc(N2C(=O)[C@@H]3C[C@H]2C[C@H]3OCc2c(-c3c(Cl)cccc3Cl)noc2C2CC2)cc1 (stereo partly drawn) [Compound I-342] , target or system ligand binding domain of human FXR (Homo sapiens (Human)).
**A:** 139

====

Consider the following compounds; for each one, report its pEC50.
testedOn: ligand binding domain of human FXR (Homo sapiens (Human), UniProt Q96RI1)
Sequence (Q96RI1 262-486): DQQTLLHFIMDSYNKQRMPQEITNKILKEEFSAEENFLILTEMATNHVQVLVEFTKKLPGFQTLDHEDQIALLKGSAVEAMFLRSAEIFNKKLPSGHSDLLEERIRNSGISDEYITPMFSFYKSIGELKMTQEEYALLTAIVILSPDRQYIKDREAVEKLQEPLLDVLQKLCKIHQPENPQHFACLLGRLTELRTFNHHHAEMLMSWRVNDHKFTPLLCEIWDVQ
assayRemarks: FXR ligand binding assay (LanthaScreen TR-FRET, SRC2-2 peptide recruitment)
assayContext: -log EC50, concentration required to produce 50% activation

**Q:** Can you share its pEC50? I mean this compound: "CS(=O)(=O)NC(=O)c1cc(F)c2nc(N3C[C@@H]4C[C@H]3C[C@H]4OCc3c(-c4c(Cl)cccc4Cl)noc3C3CC3)sc2c1"
**A:** 8.9

**Q:** Can you share its pEC50? I mean this compound: "O=C(NS(=O)(=O)CC1CCOCC1)c1ccc(N2C(=O)[C@@H]3C[C@H]2C[C@H]3OCc2c(-c3c(Cl)cccc3Cl)noc2C2CC2)cc1F"
**A:** 8.8

**Q:** Can you share its pEC50? I mean this compound: "C[C@@H]1[C@@H]2C[C@@H](C[C@H]2OCc2c(-c3c(Cl)cccc3Cl)noc2C2CC2)N1c1ccc(C(=O)O)cc1"
**A:** 8.6

====

testedOn: human Farnesoid X receptor ligand-binding domain/Gal4 DNA binding domain chimera (Homo sapiens (Human), UniProt Q96RI1)
Sequence (Q96RI1 262-486, change not shown): as the sequence (Q96RI1 262-486) above
Sequence (P04386 1-147 partner): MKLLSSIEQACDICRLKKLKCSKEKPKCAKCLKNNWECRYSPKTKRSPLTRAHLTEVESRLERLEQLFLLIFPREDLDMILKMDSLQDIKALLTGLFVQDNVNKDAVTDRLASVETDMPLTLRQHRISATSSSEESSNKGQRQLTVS
assayRemarks: Cell-based assay of FXR activation (FXR-UAS-bla HEK 293T beta-lactamase reporter)
assayContext: cellular FXR beta-lactamase reporter assay, FXR-UAS-bla HEK 293T cells, 16 h; pEC50 = -log EC50
measurementKind: EC50

**Q:** Can you share its EC50? I mean this compound: Cc1cc(C(=O)NCCP(=O)(O)O)ccc1N1C[C@@H]2C[C@H]1C[C@H]2OCc1c(-c2c(Cl)cccc2Cl)noc1C1CC1 [Compound I-173]
**A:** 100 nM

**Q:** Can you share its EC50? I mean this compound: Cn1nc(C(=O)NS(=O)(=O)C2CC2)cc1N1C[C@@H]2C[C@H]1C[C@H]2OCc1c(-c2c(Cl)cccc2Cl)noc1C1CC1 [Compound I-233]
**A:** < 31.6 nM

**Q:** Can you share its EC50? I mean this compound: O=C(O)c1ccc(N2C[C@@H]3C[C@H]2C[C@H]3OC(=O)c2c(-c3c(Cl)cccc3Cl)noc2C2CC2)c(F)c1 [Compound I-43]
**A:** 6.31 nM

**Q:** Can you share its EC50? I mean this compound: O=C(O)c1cc(O[C@H]2CCOC2)c2nc(N3C[C@@H]4C[C@H]3C[C@H]4OCc3c(-c4c(Cl)cccc4Cl)noc3C3CC3)sc2c1 [Compound I-260]
**A:** 0.398 nM

**Q:** Can you share its EC50? I mean this compound: O=C(NS(=O)(=O)[C@@H]1CCC[C@H]1O)c1ccc(N2C(=O)[C@@H]3C[C@H]2C[C@H]3OCc2c(-c3c(Cl)cccc3Cl)noc2C2CC2)cc1F [Compound I-346]
**A:** 0.794 nM

**Q:** Can you share its EC50? I mean this compound: O=C(O)CCc1ccc(N2C(=O)[C@@H]3C[C@H]2C[C@H]3OCc2c(-c3c(Cl)cccc3Cl)noc2C2CC2)cc1F [Compound I-305]
**A:** 3.16 nM
